- Target: aSyn aggregates on PD sections (Homo sapiens)
- Construct: 20 μm frozen sections from amygdala were purchased from an external provider (Tissue Solutions Ltd.); tissue Tissue Solutions Ltd; host or cells: human PD amygdala, frozen sections, Braak stage V-VI
- Measurement Description: Assay 1 (fluorescence based assay): direct staining of human Parkinson's disease brain sections
- Format: binding
- Design: key: − (No); +/− (very weak); + (weak); ++ (good); +++ (strong)
- Setup Conditions: staining intensity; compound 100 μM, frozen amygdala sections, PD Braak stage V-VI
Measured Metric: Staining of aSyn aggregates on PD sections

Consider the reported Staining of aSyn aggregates on PD sections for these compounds:
CNc1ccc(-c2cc3ccc(Nc4ccc(N5CCOCC5)cc4)nc3s2)cc1 ... +
Fc1ccc(-c2ccc3sc(-c4ccc(N5CCCC5)nc4)nc3n2)cn1 ... ++
Cn1cncc1-c1ccc2sc(-c3ccc(N4CCCC4)nc3F)nc2n1 ... +++
FCCOc1ccc(-c2cc3ccc(Nc4ccc5c(c4)OCCO5)nc3s2)cc1 ... +
Fc1nc(N2CCCC2)ccc1-c1ccc2cc(-c3cncnc3)sc2n1 ... +

Moving on to another compound below.
Prompt: Record request: Staining of aSyn aggregates on PD sections value, item c1ncc(-c2cc3ccc(-c4ccc(N5CCCC5)nc4)nc3s2)cn1
Completion: ++

---

- Target: aSyn aggregates on PD sections (Homo sapiens)
- Construct: 20 μm frozen sections from amygdala were purchased from an external provider (Tissue Solutions Ltd.); tissue Tissue Solutions Ltd; host or cells: human PD amygdala, frozen sections, Braak stage V-VI
- Measurement Description: Assay 1 (fluorescence based assay): direct staining of human Parkinson's disease brain sections
- Assay type: binding
- Parameters: key: − (No); +/− (very weak); + (weak); ++ (good); +++ (strong)
- Setup Conditions: staining intensity; compound 100 μM, frozen amygdala sections, PD Braak stage V-VI
Measured Metric: Staining of aSyn aggregates on PD sections

Consider the reported Staining of aSyn aggregates on PD sections for these compounds:
c1cncc(-c2cc3ccc(Nc4ccc(N5CCOCC5)nc4)nc3s2)c1 ... +
CNc1ccc(-c2cc3ccc(-c4ccc(N5CC[C@H](F)C5)nc4)nc3s2)cc1F ... +
FCCNc1ccc(-c2ccc3cc(-c4cccnc4)sc3n2)cn1 ... ++
F[C@@H]1CCN(c2ccc(-c3ccc4sc(-c5cccnc5)cc4n3)cn2)C1 ... +
Fc1nc(N2CCCC2)ccc1-c1nc2nc(-c3cnc[nH]3)ccc2s1 ... ++

Moving on to another compound below.
Prompt: Record request: Staining of aSyn aggregates on PD sections value, item O=C1NCCc2nc(N3CC[C@H](F)C3)sc21
Completion: +

---

- Target: aSyn aggregates on PD sections (Homo sapiens)
- Construct: 20 μm frozen sections from amygdala were purchased from an external provider (Tissue Solutions Ltd.); tissue Tissue Solutions Ltd; host or cells: human PD amygdala, frozen sections, Braak stage V-VI
- Measurement Description: Assay 1 (fluorescence based assay): direct staining of human Parkinson's disease brain sections
- Assay type: binding
- Set-up: key: − (No); +/− (very weak); + (weak); ++ (good); +++ (strong)
- Setup Conditions: staining intensity; compound 100 μM, frozen amygdala sections, PD Braak stage V-VI
Measured Metric: Staining of aSyn aggregates on PD sections

Consider the reported Staining of aSyn aggregates on PD sections for these compounds:
CN(CCF)c1ccc(-c2ccc3cc(-c4cccnc4)sc3n2)cn1 ... ++
CNc1ccc(-c2ccc3cc(-c4ccc(OCCF)cc4)sc3n2)cc1 ... +
c1cncc(-c2cc3ccc(Nc4ccc5c(c4)OCCO5)nc3s2)c1 ... +
FCCOc1ccc(-c2cc3ccc(-c4ccc(F)nc4)nc3s2)cc1 ... +
Fc1ncccc1-c1cc2ccc(-c3ccc(N4CCCC4)nc3)nc2s1 ... ++

Prompt: Record request: Staining of aSyn aggregates on PD sections value, item FCCOC1CCN(c2ccc3cc(-c4cccnc4)sc3n2)CC1
Completion: +

Prompt: Record request: Staining of aSyn aggregates on PD sections value, item CNc1ccc(-c2ccc3cc(-c4ccccc4OC)sc3n2)cn1
Completion: ++

Prompt: Record request: Staining of aSyn aggregates on PD sections value, item CN1CCN(c2ccc3nc(-c4ccc(N5CC[C@@H](F)C5)nc4)sc3c2)C(=O)C1
Completion: +

Prompt: Record request: Staining of aSyn aggregates on PD sections value, item F[C@H]1CCCN(c2ccc(-c3nc4nc(-n5ccnc5)ccc4s3)cn2)C1
Completion: ++

# credit: patent US11623931B2
